- System: 253994-281-T-J1-PDC KRAS-mutant spheroids with HUVEC/MSC, viability;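 note: spheroids exposed to agents for seven days before readout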
- testMethodNotes: Anticancer human tumor 253994-281-T-J1-PDC patient-derived colorectal carcinoma cell line growth inhibition [KRAS2]
- conditionLabel: curve of first compound; second compound 0.316 µM
propertyMeasured: IC50

Reference set, count: 5
molecule	propertyMeasured	reportedMeasurement
COC(=O)c1ccc2c(C(=Nc3ccc(N(C)C(=O)CN4CCN(C)CC4)cc3)c3ccccc3)c(O)[nH]c2c1 + COc1cc2nc(C)nc(NC(C)c3cc(N)cc(C(F)(F)F)c3)c2cc1OC1CCOC1	IC50	5430 nM
CC(=O)OC12COC1CC(O)C1(C)C(=O)C(O)C3=C(C)C(OC(=O)C(O)C(NC(=O)OC(C)(C)C)c4ccccc4)CC(O)(C(OC(=O)c4ccccc4)C21)C3(C)C (stereo not given) + CNCc1ccccc1-c1csc(C(C)Nc2nc(C)nc3cc(OC)c(OC)cc23)c1	IC50	12.9 nM
CC(=O)OC12COC1CC(O)C1(C)C(=O)C(O)C3=C(C)C(OC(=O)C(O)C(NC(=O)OC(C)(C)C)c4ccccc4)CC(O)(C(OC(=O)c4ccccc4)C21)C3(C)C (stereo not given) + C=CC(=O)N1CCN(c2nc(OCC3CCCN3C)nc3c2CCN(c2cccc4cccc(C)c24)C3)CC1CC#N	IC50	27.6 nM
COc1cc(Nc2ncc3c(n2)-c2ccc(Cl)cc2C(c2c(F)cccc2OC)=NC3)ccc1C(=O)O + C=CC(=O)N1CCN(c2nc(=O)n(-c3c(C)ccnc3C(C)C)c3nc(-c4c(O)cccc4F)c(F)cc23)C(C)C1	IC50	> 10000 nM
CC(C)n1nc(-c2ccc3oc(N)nc3c2)c2c(N)ncnc21 + C=CC(=O)N1CCN(c2nc(OCC3CCCN3C)nc3c2CCN(c2cccc4cccc(C)c24)C3)CC1CC#N	IC50	> 100 nM

Record lookup: for 253994-281-T-J1-PDC KRAS-mutant spheroids with HUVEC/MSC, viability, what IC50 belongs to COc1cc(Nc2ncc3c(n2)-c2ccc(Cl)cc2C(c2c(F)cccc2OC)=NC3)ccc1C(=O)O + COc1cc2nc(C)nc(NC(C)c3cc(N)cc(C(F)(F)F)c3)c2cc1OC1CCOC1 ?
< 31.6 nM

Record lookup: for 253994-281-T-J1-PDC KRAS-mutant spheroids with HUVEC/MSC, viability, what IC50 belongs to COC(=O)c1ccc2c(C(=Nc3ccc(N(C)C(=O)CN4CCN(C)CC4)cc3)c3ccccc3)c(O)[nH]c2c1 + CNCc1ccccc1-c1csc(C(C)Nc2nc(C)nc3cc(OC)c(OC)cc23)c1 ?
4120 nM
